- measurement protocol: Cytotoxicity on primary cell culture (propidium iodide, flow cytometry)
- Assay type: cell-based
- details: Balb/c mouse spleen cells, 48 h incubation, PI staining; read-out: CC50 ± SD, splenocytes (concentration that causes 50% cell death)
measured attribute: CC50 at 48 h (nM)

>>> recorded_number("C=C1C(=O)O[C@@H]2C[C@@H](C)[C@@H]3C=CC(=O)[C@@]3(C)[C@@H](O)[C@H]12")
1200

---

- measurement protocol: Cytotoxicity on primary cell culture (propidium iodide, flow cytometry)
- Type: cell-based
- details: Balb/c, mouse
- Procedure: The cytotoxicity of the sesquiterpene lactones and its derivatives was evaluated using mouse splenocytes. […] Cumanin derivatives (4–11) have shown CC50 values and selectivity indexes higher than natural compound 1. […] In a 96-well plate, spleen cells from Balb/c mouse (1.5 × 10^5) were incubated with different drug dilutions (200, 100, 50, 10, and 5 μg/mL) in RPMI medium containing 10% fetal calf serum. […] Subsequently, cell death was assessed by flow cytometry using a BD FACSaria II cytometer. […]
measured attribute: CC50 at 48 h (nM)

>>> recorded_number("C=C1C(=O)O[C@@H]2C[C@H](C)[C@@H]3C[C@H](O[Si](C)(C)C(C)C)[C@H](O[Si](C)(C)C(C)C)[C@@]3(C)C[C@H]12")
91800
>>> recorded_number("C=C1C(=O)O[C@@H]2C[C@@H](C)[C@@H]3C=CC(=O)[C@@]3(C)[C@@H](O[Si](C)(C)C(C)C)[C@H]12")
1400
>>> recorded_number("C=C1C(=O)O[C@@H]2[C@H]1CC[C@H](C)[C@@]1(O)C=CC(=O)[C@@]21C")
4400
>>> recorded_number("C=C1C(=O)O[C@@H]2[C@H]1CC[C@H](C)[C@@]1(O[Si](C)(C)C)C=CC(=O)[C@@]21C")
2300
>>> recorded_number("C=C1C(=O)O[C@@H]2C[C@@H](C)[C@@H]3C=CC(=O)[C@@]3(C)[C@@H](O[Si](C)(C)C)[C@H]12")
1100

These entries and their values trace back to paper PMC6471591.
